B1: TPR t1 (parent)
chain: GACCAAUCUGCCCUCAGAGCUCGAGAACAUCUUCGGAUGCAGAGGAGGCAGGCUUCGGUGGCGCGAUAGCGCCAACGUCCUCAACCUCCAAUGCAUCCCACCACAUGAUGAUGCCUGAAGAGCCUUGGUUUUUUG

variants of: B1; assay: polymerase ribozyme fitness, log enrichment relative to wild type (log ratio); higher = more active; in vitro selection for triplet polymerase activity
polymerase ribozyme fitness (log ratio) below -2 gives N; polymerase ribozyme fitness (log ratio) at or above it gives Y.

{"mutationDescriptor": "A24U C49G C64A C104U C123G", "classAssignment": "N"}
{"mutationDescriptor": "C40G C56U G69U", "classAssignment": "N"}
{"mutationDescriptor": "A2U G120A", "classAssignment": "Y"}
{"mutationDescriptor": "A46U G48A U87A G120A U129C", "classAssignment": "Y"}
{"mutationDescriptor": "C56G G57U C101G A111C", "classAssignment": "Y"}
{"mutationDescriptor": "C20U C70U A95G", "classAssignment": "Y"}
{"mutationDescriptor": "C12G G42A", "classAssignment": "Y"}
{"mutationDescriptor": "C12A C62A", "classAssignment": "Y"}
{"mutationDescriptor": "C8U C13U A103C C115A A119G", "classAssignment": "N"}
{"mutationDescriptor": "C11G A16U C28G A121C", "classAssignment": "Y"}
{"mutationDescriptor": "A6G A18U C40G G42U U81C", "classAssignment": "N"}
{"mutationDescriptor": "A18C A43U A121G", "classAssignment": "Y"}
{"mutationDescriptor": "C8G G71U", "classAssignment": "Y"}
{"mutationDescriptor": "U9C C12G C28U C73U G110C", "classAssignment": "Y"}
{"mutationDescriptor": "U9A C11G G93U A100G", "classAssignment": "N"}
{"mutationDescriptor": "C13U G42U G61A A90U A95U", "classAssignment": "Y"}
{"mutationDescriptor": "A74G C123U", "classAssignment": "Y"}
{"mutationDescriptor": "A43G C72U C94G C101U U116G", "classAssignment": "N"}
{"mutationDescriptor": "A74U G128U U130C", "classAssignment": "Y"}
{"mutationDescriptor": "C62U A84G C101A", "classAssignment": "Y"}
{"mutationDescriptor": "G58A G122A", "classAssignment": "Y"}
{"mutationDescriptor": "U9G U14A", "classAssignment": "Y"}

Origin of the recorded values: the RNAGym collection of RNA variant scans (doi:10.1073/pnas.2313332121)
